System: T24 human bladder cancer cell line
Experiment: MTT cell proliferation assay, T24
Type: cell-based
Conditions: 24 h incubation
MEASURE NAME: % of DMSO control at 100 μM, T24, 24 h

Need % of DMSO control at 100 μM, T24, 24 h, item CC(C)OC(=O)[C@@H](N)CCN(C/C=C/c1ccc(C#N)cc1)C[C@H]1O[C@@H](n2cnc3c(N)ncnc32)[C@H](O)[C@@H]1O
100 % of DMSO control

Now the same for CC(=O)Oc1cc(C)cc(C)c1C(C)(C)CC(=O)N[C@@H](CCN(C/C=C/c1ccc(C#N)cc1)C[C@H]1O[C@@H](n2cnc3c(N)ncnc32)[C@H](O)[C@@H]1O)C(=O)O
100 % of DMSO control

Now the same for CCCOC(=O)[C@@H](N)CCN(C/C=C/c1ccc(C#N)cc1)C[C@H]1O[C@@H](n2cnc3c(N)ncnc32)[C@H](O)[C@@H]1O
82 % of DMSO control

Now the same for COC(=O)[C@H](CCN(C/C=C/c1ccc(C#N)cc1)C[C@H]1O[C@@H](n2cnc3c(N)ncnc32)[C@H](O)[C@@H]1O)NC(=O)CC(C)(C)c1c(C)cc(C)cc1OC(C)=O
100 % of DMSO control

Now the same for CCCOC(=O)[C@H](CCN(C/C=C/c1ccc(C#N)cc1)C[C@H]1O[C@@H](n2cnc3c(N)ncnc32)[C@H](O)[C@@H]1O)NC(=O)CC(C)(C)c1c(C)cc(C)cc1OC(C)=O
72 % of DMSO control
